Test: amyloid nucleation score (Sup35N fusion, yeast selection) (log enrichment); library NNK2; higher = more nucleation; inactive = no reads after selection;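 further: zero at mode of non-aggregating sequences after 7 days selection at 30°C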
Listed here are substances together with their documented amyloid nucleation score.

>  <substance>
GGWNLDYVMRVYTRRLCNAS

>  <amyloid nucleation score>
1.17

$$$$
>  <substance>
KLMYLKLK

>  <amyloid nucleation score>
-0.038

$$$$
>  <substance>
ILCFGFITTNSIRLQSPMVV

>  <amyloid nucleation score>
0.753

$$$$
>  <substance>
LSFISRRDNDGYMICEYSLP

>  <amyloid nucleation score>
0.264

$$$$
>  <substance>
HCNLSWSCTSGIALSRT

>  <amyloid nucleation score>
4.54

$$$$
>  <substance>
RVLVSS

>  <amyloid nucleation score>
0.713

$$$$
>  <substance>
TDKCVTTFNCYNLHRR

>  <amyloid nucleation score>
1.62

$$$$
>  <substance>
VIWIRTIKMHACTYVQQDVL

>  <amyloid nucleation score>
0.806

$$$$
>  <substance>
DYIIVRMCADILSGSVHGAM

>  <amyloid nucleation score>
-0.068

$$$$
>  <substance>
IREGLFRVTIDYSSMLCSGR

>  <amyloid nucleation score>
3.01

$$$$
>  <substance>
NIPLLLMFHSTIWFKMHIWE

>  <amyloid nucleation score>
1.51

$$$$
>  <substance>
MYCYRNFLSDDINRGGALVM

>  <amyloid nucleation score>
-0.998

$$$$
>  <substance>
ISPNALEAQMPTQCNYEDGE

>  <amyloid nucleation score>
0.451

$$$$
>  <substance>
THCFCGTNGWVMWGSPEGLA

>  <amyloid nucleation score>
0.179

$$$$
>  <substance>
RPKSKADYGWC

>  <amyloid nucleation score>
-0.119

$$$$
>  <substance>
IMLLNLYKDGSGGRRSKLLQ

>  <amyloid nucleation score>
-0.09

$$$$
>  <substance>
RSYIRFGNYVHYDQLWLFGG

>  <amyloid nucleation score>
3.04

$$$$
>  <substance>
RSMISRAIYWQSWSTREERT

>  <amyloid nucleation score>
1.86

$$$$
>  <substance>
ANLSRCVELMSRPQSVD

>  <amyloid nucleation score>
1

$$$$
>  <substance>
SHFADSKVHVWSMSQLATCC

>  <amyloid nucleation score>
0.22

$$$$
>  <substance>
DGFHQCAS

>  <amyloid nucleation score>
3.74

$$$$
>  <substance>
LSGRHY

>  <amyloid nucleation score>
0.33

$$$$
>  <substance>
YILSWARFIEYDYLTPRVYS

>  <amyloid nucleation score>
0.356

$$$$
>  <substance>
WLVTAMSMLVCLPGYESLYW

>  <amyloid nucleation score>
1.98

$$$$
>  <substance>
LVITTMDDLKCDRAVVGPMW

>  <amyloid nucleation score>
-0.174

$$$$
>  <substance>
CIRTDFGA

>  <amyloid nucleation score>
-0.086

$$$$
>  <substance>
IELFVSWKIGWVELRDVLLV

>  <amyloid nucleation score>
-0.055

$$$$
>  <substance>
LFGHRFPSYL

>  <amyloid nucleation score>
-0.152

$$$$
>  <substance>
NWHGSIFFIW

>  <amyloid nucleation score>
5.71

$$$$
>  <substance>
TLHLWGSK

>  <amyloid nucleation score>
1.38

$$$$
>  <substance>
SPIPFPYMYVYSMWCDTLTR

>  <amyloid nucleation score>
0.505

$$$$
>  <substance>
LWHGYGRFRVLSVVF

>  <amyloid nucleation score>
3.53

$$$$
>  <substance>
ADQWGTRVWPGWEFVLEVAA

>  <amyloid nucleation score>
1.33

$$$$
>  <substance>
IYCLATVMDMICVYGWICAW

>  <amyloid nucleation score>
0.049

$$$$
>  <substance>
SQPHYGRASACRSSSSR

>  <amyloid nucleation score>
0.831

$$$$
>  <substance>
TMSHEFV

>  <amyloid nucleation score>
0.085

$$$$
>  <substance>
CSSNCFYEAFVLGYKTHARE

>  <amyloid nucleation score>
0.295

$$$$
>  <substance>
YFDSEPCLHFPCLVEGFRGW

>  <amyloid nucleation score>
-0.54

$$$$
>  <substance>
IPSRFPNFNR

>  <amyloid nucleation score>
-1.62

$$$$
>  <substance>
NLWSSGKWLMCI

>  <amyloid nucleation score>
-0.292

$$$$
>  <substance>
GVSGCANVSCMCADVYPIAP

>  <amyloid nucleation score>
9.77

$$$$
>  <substance>
CCICKSRHLFDWKNDEWTSI

>  <amyloid nucleation score>
-0.45

$$$$
>  <substance>
ISSSKRYVLKS

>  <amyloid nucleation score>
0.583

$$$$
>  <substance>
ELVVHFFLFIMGACLHVENQ

>  <amyloid nucleation score>
-0.368

$$$$
>  <substance>
AWRAYITILGKDHAVSVSGL

>  <amyloid nucleation score>
0.715

$$$$
>  <substance>
YVDLKVACILYPYFSGTRQH

>  <amyloid nucleation score>
4.96

$$$$
>  <substance>
VITGYCA

>  <amyloid nucleation score>
2.48

$$$$
>  <substance>
FVKWIMY

>  <amyloid nucleation score>
4.09

$$$$
>  <substance>
MRHSRHFVQYGWFDCGQSGS

>  <amyloid nucleation score>
1.02

$$$$
>  <substance>
SPKTDDTTVMGELYVWLTLG

>  <amyloid nucleation score>
8.34

$$$$
>  <substance>
VRKLSRNLMICYKTVLSGDC

>  <amyloid nucleation score>
-0.105

$$$$
>  <substance>
KLPAVNLVVMREWKALRFGV

>  <amyloid nucleation score>
-0.48

$$$$
>  <substance>
FTCITIGVFELAQACPIYGG

>  <amyloid nucleation score>
6.15

$$$$
>  <substance>
SNGLGLQCGIRGKVFNELLS

>  <amyloid nucleation score>
-0.674

$$$$
>  <substance>
CFIRHISGK

>  <amyloid nucleation score>
-0.315

$$$$
>  <substance>
IINYANLSTVVNFYIRIGYC

>  <amyloid nucleation score>
6.81

$$$$
>  <substance>
SCSIPELNNEGIKVCFMNTE

>  <amyloid nucleation score>
1.27

$$$$
>  <substance>
MGHRFLLRRLSFIADLLV

>  <amyloid nucleation score>
-1.12

$$$$
>  <substance>
MLVRIYLYRKRSYMVRSALM

>  <amyloid nucleation score>
1.52

$$$$
>  <substance>
LTTGKLYFSLEMYT

>  <amyloid nucleation score>
-0.653

$$$$
>  <substance>
NTCMLRARVSVMQNEE

>  <amyloid nucleation score>
0.071

$$$$
>  <substance>
YDDHDFNRAGGLTVTNVWMV

>  <amyloid nucleation score>
3.64

$$$$
>  <substance>
IAFYMLSWGMMLV

>  <amyloid nucleation score>
-0.074

$$$$
>  <substance>
RDMLRQMNSYQEYLFVRLDN

>  <amyloid nucleation score>
-0.763

$$$$
>  <substance>
RLNIGLLSVGYR

>  <amyloid nucleation score>
1.76

$$$$
>  <substance>
VKWTVNEVYGCYYCTGSVYA

>  <amyloid nucleation score>
6.15

$$$$
>  <substance>
DGFHLNALHLESRQLGVGFS

>  <amyloid nucleation score>
3.87

$$$$
